# Read-out: Macrophage colony-stimulating factor (MCSF), CSF1 (gene 1435)
# ASSAY TEXT: BSK_LPS_MCSF: BioMAP Diversity Plus: LPS Assay for Macrophage colony-stimulating factor (MCSF) Biomarker Activity (AID 2283083)
# PARTICULARS: primary human HUVEC with PBMC; actives raise or lower the signal
Activity calls are given as the source filed them. How the source made its calls: active means hit-call score of the fitted dose curve at least 0.9, where 1 is the maximum; inactive means score below 0.9.
VALUE TYPE: AC50

Consider the worked cases shown below.
CCCCC(CC)COCCC#N (configuration not stated) : inactive
C[C@H]1C[C@@H]2[C@H]([C@@H](O)C[C@@]3(C)[C@H]2CC[C@]3(O)C(=O)CO)[C@@]2(C)C=CC(=O)C=C12 : inactive
C=C(C)C(=O)O[C@H]1C[C@@H]2CC[C@@]1(C)C2(C)C : 29.9 µM (active)
O=C(O)c1ccc([N+](=O)[O-])cc1 : inactive
O=P(c1ccccc1)(c1ccccc1)c1ccccc1 : inactive
Cc1cc(C2(c3cc(C)c(O)cc3C)OS(=O)(=O)c3ccccc32)c(C)cc1O : inactive
BrC1CCC(Br)C(Br)CCC(Br)C(Br)CCC1Br (configuration not stated) : 4.67 µM (active)
c1ccc2sc(SN(C3CCCCC3)C3CCCCC3)nc2c1 : 5.57 µM (active)
CC(=O)/C=C/C1=C(C)CCCC1(C)C : inactive
C#C[C@]1(O)CC[C@H]2[C@@H]3CCC4=Cc5oncc5C[C@]4(C)[C@H]3CC[C@@]21C : inactive

Data request: Any idea what its AC50 is? The compound is Cc1ccc(Nc2ccc(O)c3c2C(=O)c2ccccc2C3=O)cc1
Data returned: inactive

Data request: Likewise for CC(=O)Nc1ccccc1O ?
Data returned: inactive
